Biological target: T1, RB200 (human, UniProt P00533 25-645; P21860 20-643)
T1 construct: extracellular domain; Purified over Ni-Sepharose, so a His tag is likely on one chain, but none is described; also called parent heterodimer RB200; EGFR/HER3 heterodimer
Test: Eu-NRG1-β saturation binding (DELFIA), purified heterodimer immobilised on anti-human Fc plate
value.kind: Kd

>>> recorded_value("NRG1-β (ligand, UniProt Q02297-6 177-241, looked up, also called NRG1β1; NRGβ1) SHLVKCAEKEKTFCVNGGECFMVKDLSNPSRYLCKCPNEFTGDRCQNYVMASFYKHLGIEFMEAE")
"3.1 nM"
